tested on: SF-295 CNS; test: NCI-60 one-dose screen, 48 h (100 = growth as untreated, 0 = no growth, -100 = all killed); conditions: 10 µM unless noted
Compounds without any hit were thinned out: in the full panel of roughly 83,000, 20% have a hit.
Measurement Name: growth (%)
Kindly answer with a numeric value in %, unit omitted.

Sample records with growth:
>  <Compound>
COC(=O)c1ccccc1Cl

>  <Endpoint Unit>
%

>  <Assay Result>
92.1

$$$$
>  <Compound>
O=c1[nH]c(=S)[nH]n1C(=S)n1[nH]c(=S)[nH]c1=O

>  <Endpoint Unit>
%

>  <Assay Result>
97.8

$$$$
>  <Compound>
O=C(O)C#Cc1ccc(Cl)cc1

>  <Endpoint Unit>
%

>  <Assay Result>
99.7

$$$$

Please report the recorded growth for CC1OS(=O)OC1C (centres undefined) .
100

Data request, read-out growth, for COc1cc2c(cc1O)C(=O)CCCC2
83.8

Any idea what its growth is? The compound is N#CC(=S)Nc1ccc(Cl)c(Cl)c1
-0.242

Item O=C(O)c1ccc2c3ccc(C(=O)O)c4c(C(=O)O)ccc(c5ccc(C(=O)O)c1c25)c43 has what recorded growth?
84.5

Name the recorded growth for CCc1ccccc1-n1[nH]c(C)c(C=N)c1=O .
99.3

Please give the measured growth for this compound: CC(C)(C)OC(=O)NCCc1ccc(N)cc1
99.2

What measured growth goes with COc1cc(Cl)ccc1C ?
79.2

Can you look up the measured growth of CC(=O)C[n+]1ccccc1Sc1ccc(Cl)cc1 for me?
82.9

What does the record list as growth for CC(=O)Nc1ccc2oc(=O)ccc2c1 ?
108

# lookup: growth of CN1C2C=CC(=O)C1C1C(=O)N(c3ccccc3)C(=O)C12 (centres undefined)
99

Which value of growth has been reported for CC(C)(C)OC(=O)CC1(O)CCCCC1 in the records?
100

For Cc1cc(-c2ccc(N=Nc3c(C)nn(-c4ccc(S(=O)(=O)O)cc4)c3O)c(C)c2)ccc1N=Nc1ccc(O)c(C(=O)O)c1 , what is its reported growth?
93.4
